Below, each entry is listed with its recorded flash point.
State the answer as a number, implicitly in °C.

Consider the following illustrative entries.
Molecule: Cc1cccc(C(C)(C)C)c1O
Measured Metric: flash point
Recorded Number: 107
--
Molecule: CC(C)(C)SSC(C)(C)C [di-tert-butyl disulfide]
Measured Metric: flash point
Recorded Number: 67
--
Molecule: CC(C)(C)ON=O
Measured Metric: flash point
Recorded Number: -23

**Query** Reported flash point, molecule CCCOC(C)=O [n-propyl acetate] : ____
**Result** 10

**Query** Reported flash point, molecule CCCCC(CC)CN (stereo unspecified) : ____
**Result** 50

**Query** Reported flash point, molecule CCC(O)CC : ____
**Result** 34

###

flash point below 6 °C gives no; flash point at or above it gives yes.

Consider the following illustrative entries.
Compound: CCCCCCCCC=O
Assigned Class: yes
--
Compound: CCN(CC)CC [Triethylamine]
Assigned Class: no
--
Compound: CNc1ccccc1
Assigned Class: yes

**Query** Record CCC(C)CO (centres undefined) ; criterion: flash point no lower than 6 °C. Met?
**Result** yes

**Query** Record Cc1ccccc1 [TOLUENE] ; criterion: flash point no lower than 6 °C. Met?
**Result** no

**Query** Record CCOCCOCCO ; criterion: flash point no lower than 6 °C. Met?
**Result** yes

**Query** Record C=CCCCCC ; criterion: flash point no lower than 6 °C. Met?
**Result** no

**Query** Record CCCCCCC(C)CC (centres undefined) ; criterion: flash point no lower than 6 °C. Met?
**Result** yes

###

The label yes is reserved for flash point strictly under 100 °C; no covers values equal to or above it.

Consider the following illustrative entries.
Compound: CC(C)(C)OOC(C)(C)C
Assigned Class: yes
//
Compound: C=CC[Si](Cl)(Cl)Cl
Assigned Class: yes
//
Compound: CCC(=O)C(C)=O
Assigned Class: yes

**Query** Strictly below 100 °C in flash point? C1=CCCC=CCCC=CCC1
**Result** yes

**Query** Strictly below 100 °C in flash point? CC(C)c1ccc2ccccc2c1
**Result** no

**Query** Strictly below 100 °C in flash point? OCCCCO
**Result** no

**Query** Strictly below 100 °C in flash point? CCCCOB(OCCCC)OCCCC [tributyl borate]
**Result** yes

**Query** Strictly below 100 °C in flash point? CC(O)CN(CC(C)O)CC(C)O (stereo not given) [1-[bis(2-hydroxypropyl)amino]propan-2-ol]
**Result** no

**Query** Strictly below 100 °C in flash point? CCN(CC)C(=O)c1cccnc1 [N,N-diethylpyridine-3-carboxamide]
**Result** no

**Query** Strictly below 100 °C in flash point? COc1cc(Cl)c(OC)cc1Cl
**Result** no

###

Measured Metric: flash point (°C)
State the answer as a number, implicitly in °C.

Compound: CCCCCCCCCO
Measured Metric: flash point
Recorded Number: 74.00

**Query** Reported flash point, compound NC=O [formamide] : ____
**Result** 154.00

**Query** Reported flash point, compound O=C1CCCCC1 : ____
**Result** 44.00

**Query** Reported flash point, compound CS(C)=O : ____
**Result** 95.00

###

Below, each entry is listed with its recorded flash point.

Consider the following illustrative entries.
Compound: CC(=O)OC(C)(C)C [tert-butyl acetate]
flash point: 15 °C
//
Compound: C#CCCCCCCCC
flash point: 50 °C
//
Compound: COC(=O)C1CC1 [methyl cyclopropanecarboxylate]
flash point: 17 °C

**Query** Reported flash point, compound C=C(C)CCCCC : ____
**Result** 10 °C

**Query** Reported flash point, compound CC(Cl)CO (centres undefined) : ____
**Result** 52 °C

**Query** Reported flash point, compound OCC(O)CO : ____
**Result** 184 °C

**Query** Reported flash point, compound CCCCCC(=O)CC : ____
**Result** 53 °C

**Query** Reported flash point, compound CCCCCCCCBr : ____
**Result** 78 °C

**Query** Reported flash point, compound C=C(C)CCC : ____
**Result** -26 °C

**Query** Reported flash point, compound CCOC(=O)CC(C)=O : ____
**Result** 70 °C

**Query** Reported flash point, compound CCCCCCCCCCCc1ccccc1 : ____
**Result** 144 °C

**Query** Reported flash point, compound CCCCl : ____
**Result** -31 °C

**Query** Reported flash point, compound CC(C)(C)S : ____
**Result** -26 °C

**Query** Reported flash point, compound CC(C)CCl : ____
**Result** 21 °C

**Query** Reported flash point, compound CCOC(=O)CCCC(=O)OCC [diethyl glutarate] : ____
**Result** 96 °C

**Query** Reported flash point, compound CCBr : ____
**Result** -20 °C

**Query** Reported flash point, compound CC(=O)CC(C)C : ____
**Result** 14 °C

**Query** Reported flash point, compound CCCC(=O)c1ccccc1 : ____
**Result** 88 °C

**Query** Reported flash point, compound BrC(Br)Br [bromoform] : ____
**Result** 83 °C

**Query** Reported flash point, compound CC(C)=CC=C(C)C : ____
**Result** 29 °C

Data origin: a flash point compilation (Sun et al. 2020)
